Where do these numbers come from? They come from paper PMC6628362.

Experiment: Plasma pharmacokinetics of Si306 in mice
Format: in vivo, BALB/C mice
Conditions: male, BALB/C, mouse, oral, 50 mg/kg, mice, p.o. 50 mg/kg vs i.v. 25 mg/kg, equation (1)
readout: bioavailability (%)
Report the figure in % without appending any unit label.

Field request: bioavailability | item: ClC(Cn1ncc2c(Nc3cccc(Br)c3)nc(SCCN3CCOCC3)nc21)c1ccccc1 (stereo not shown)
33.3

----------
Assay: Brain and tissue distribution of Si306 in mice
Format: in vivo, BALB/C mice
Settings: male, BALB/C, mouse, iv, brain, i.v., 25 mg/kg, read-out: AUC 0→24 h
readout: AUC(0-t) (ng·h/mL)
Reply numerically in ng·h/mL, unit not repeated.

Returns the measured AUC(0-t) for the input compound. Input: ClC(Cn1ncc2c(Nc3cccc(Br)c3)nc(SCCN3CCOCC3)nc21)c1ccccc1 (stereo not shown)
2140
